experimental target: Intercellular adhesion molecule (ICAM-1), Integrin alpha-L/beta-2 (Homo sapiens, UniProt P05107+P05362+P20701)
Sequence (P20701 whole entry): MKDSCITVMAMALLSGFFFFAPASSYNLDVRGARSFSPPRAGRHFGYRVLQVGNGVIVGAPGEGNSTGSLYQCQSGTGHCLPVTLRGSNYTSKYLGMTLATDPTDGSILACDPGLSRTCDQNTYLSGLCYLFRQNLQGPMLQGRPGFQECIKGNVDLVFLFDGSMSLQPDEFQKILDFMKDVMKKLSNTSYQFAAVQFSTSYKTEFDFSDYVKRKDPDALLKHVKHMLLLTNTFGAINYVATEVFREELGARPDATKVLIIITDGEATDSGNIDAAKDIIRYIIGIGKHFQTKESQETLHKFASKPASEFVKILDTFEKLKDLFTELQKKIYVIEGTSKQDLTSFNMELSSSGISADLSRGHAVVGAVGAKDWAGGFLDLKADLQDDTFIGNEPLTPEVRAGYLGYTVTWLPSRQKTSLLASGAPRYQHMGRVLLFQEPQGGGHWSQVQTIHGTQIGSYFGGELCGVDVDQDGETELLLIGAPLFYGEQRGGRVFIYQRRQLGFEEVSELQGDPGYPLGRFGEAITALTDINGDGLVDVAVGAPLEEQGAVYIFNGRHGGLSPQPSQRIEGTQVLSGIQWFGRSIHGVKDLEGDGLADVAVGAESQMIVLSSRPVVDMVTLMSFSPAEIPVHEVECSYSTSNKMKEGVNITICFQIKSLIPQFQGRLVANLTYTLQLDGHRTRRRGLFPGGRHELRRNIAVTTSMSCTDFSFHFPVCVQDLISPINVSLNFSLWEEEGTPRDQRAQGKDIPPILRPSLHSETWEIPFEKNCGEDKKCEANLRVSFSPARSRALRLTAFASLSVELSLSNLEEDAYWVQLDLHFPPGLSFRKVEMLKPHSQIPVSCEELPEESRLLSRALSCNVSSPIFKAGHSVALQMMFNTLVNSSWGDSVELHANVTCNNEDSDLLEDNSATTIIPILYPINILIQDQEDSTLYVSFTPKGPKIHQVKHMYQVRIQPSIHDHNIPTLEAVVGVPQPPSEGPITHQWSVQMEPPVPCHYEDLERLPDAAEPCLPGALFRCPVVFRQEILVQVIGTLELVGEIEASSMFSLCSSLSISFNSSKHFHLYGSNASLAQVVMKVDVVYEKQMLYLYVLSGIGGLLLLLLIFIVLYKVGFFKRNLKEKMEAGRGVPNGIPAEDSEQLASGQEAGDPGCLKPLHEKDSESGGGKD
Sequence (P05362 whole entry): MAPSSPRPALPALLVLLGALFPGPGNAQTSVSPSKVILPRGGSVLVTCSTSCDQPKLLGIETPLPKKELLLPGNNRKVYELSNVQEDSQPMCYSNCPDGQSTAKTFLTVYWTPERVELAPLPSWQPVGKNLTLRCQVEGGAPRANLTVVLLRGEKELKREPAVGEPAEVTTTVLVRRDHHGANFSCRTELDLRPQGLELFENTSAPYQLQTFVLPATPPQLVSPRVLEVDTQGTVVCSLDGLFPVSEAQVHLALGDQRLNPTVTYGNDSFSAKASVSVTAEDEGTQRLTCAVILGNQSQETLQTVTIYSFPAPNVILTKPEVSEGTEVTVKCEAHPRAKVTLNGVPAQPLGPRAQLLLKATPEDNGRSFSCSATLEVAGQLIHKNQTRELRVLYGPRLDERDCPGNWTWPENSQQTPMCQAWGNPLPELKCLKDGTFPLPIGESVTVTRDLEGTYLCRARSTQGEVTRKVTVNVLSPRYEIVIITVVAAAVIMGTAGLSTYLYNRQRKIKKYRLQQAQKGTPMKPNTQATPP
Sequence (P05107 whole entry): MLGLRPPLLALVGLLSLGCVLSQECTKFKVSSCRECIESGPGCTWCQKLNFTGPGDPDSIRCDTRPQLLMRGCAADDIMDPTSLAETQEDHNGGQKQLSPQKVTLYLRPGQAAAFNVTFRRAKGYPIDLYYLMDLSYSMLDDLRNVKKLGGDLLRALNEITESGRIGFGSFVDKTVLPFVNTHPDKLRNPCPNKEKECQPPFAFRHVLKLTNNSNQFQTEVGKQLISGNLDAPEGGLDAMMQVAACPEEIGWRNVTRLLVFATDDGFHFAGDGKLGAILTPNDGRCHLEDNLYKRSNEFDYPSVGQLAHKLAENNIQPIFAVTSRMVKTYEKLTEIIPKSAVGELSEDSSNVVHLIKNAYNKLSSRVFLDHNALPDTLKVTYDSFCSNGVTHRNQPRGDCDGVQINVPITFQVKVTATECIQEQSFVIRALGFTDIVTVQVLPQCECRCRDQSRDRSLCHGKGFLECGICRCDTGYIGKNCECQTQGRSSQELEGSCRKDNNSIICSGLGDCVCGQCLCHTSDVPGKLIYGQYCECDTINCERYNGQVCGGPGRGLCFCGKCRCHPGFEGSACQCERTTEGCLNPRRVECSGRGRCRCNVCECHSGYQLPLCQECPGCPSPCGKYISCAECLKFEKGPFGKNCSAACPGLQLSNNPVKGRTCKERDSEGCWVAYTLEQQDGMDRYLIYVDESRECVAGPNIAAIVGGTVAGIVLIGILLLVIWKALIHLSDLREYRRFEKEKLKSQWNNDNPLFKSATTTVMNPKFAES
method: Concentration required to inhibit binding of ICAM-1 to LFA-1 (Leukocyte function-associated antigen-1), evaluated ELISA
measurement kind: IC50

Reference set (6 entries):
smiles repr: O=C(N[C@H](Cc1cccc2ccccc12)C(=O)O)c1ccccc1Br
IC50: > 200 µM
//
smiles repr: O=C(N[C@@H](CS)C(=O)O)c1ccccc1Br
IC50: 4.26 µM
//
smiles repr: NC(=O)[C@H](Cc1c[nH]c2ccccc12)NC(=O)c1ccccc1Br
IC50: > 1000 µM
//
smiles repr: NCCCC[C@H](NC(=O)c1ccccc1Br)C(=O)O
IC50: 1.21 µM
//
smiles repr: O=C(O)[C@@H]1CCCN1C(=O)c1ccccc1Br
IC50: > 1000 µM
//
smiles repr: CC[C@H](C)[C@H](NC(=O)c1ccccc1Br)C(=O)O
IC50: 106 µM

// query IC50 value for entry CC(C)C[C@H](NC(=O)c1ccccc1Br)C(=O)O 54.3 µM

Item O=C(N[C@@H](Cc1c[nH]c2ncccc12)C(=O)O)c1ccccc1Br has what recorded IC50? 63.8 µM

# lookup: IC50 of COC(=O)[C@H](Cc1c[nH]c2ccccc12)NC(=O)c1ccccc1Br > 1000 µM

Can you share its IC50? I mean this compound: O=C(N[C@@H](CO)C(=O)O)c1ccccc1Br 6.15 µM

# input compound: O=C(N[C@@H](Cc1c[nH]c2ccc(O)cc12)C(=O)O)c1ccccc1Br ; wanted: its IC50 24.2 µM

Name the recorded IC50 for NC(=O)C[C@H](NC(=O)c1ccccc1Br)C(=O)O . 1.08 µM

Quick one: IC50 of O=C(N[C@@H](Cc1ccc2ccccc2c1)C(=O)O)c1ccccc1Br ? 24.4 µM

Please look up its IC50: O=C(N[C@H](Cc1c[nH]c2ccccc12)C(=O)O)c1ccccc1Br 76.6 µM

Which IC50 value belongs to O=C(O)CC[C@H](NC(=O)c1ccccc1Br)C(=O)O ? 30.1 µM

Origin of values: ChEMBL document CHEMBL1136638
